B1: library; numbered along this chain (parent)
chain: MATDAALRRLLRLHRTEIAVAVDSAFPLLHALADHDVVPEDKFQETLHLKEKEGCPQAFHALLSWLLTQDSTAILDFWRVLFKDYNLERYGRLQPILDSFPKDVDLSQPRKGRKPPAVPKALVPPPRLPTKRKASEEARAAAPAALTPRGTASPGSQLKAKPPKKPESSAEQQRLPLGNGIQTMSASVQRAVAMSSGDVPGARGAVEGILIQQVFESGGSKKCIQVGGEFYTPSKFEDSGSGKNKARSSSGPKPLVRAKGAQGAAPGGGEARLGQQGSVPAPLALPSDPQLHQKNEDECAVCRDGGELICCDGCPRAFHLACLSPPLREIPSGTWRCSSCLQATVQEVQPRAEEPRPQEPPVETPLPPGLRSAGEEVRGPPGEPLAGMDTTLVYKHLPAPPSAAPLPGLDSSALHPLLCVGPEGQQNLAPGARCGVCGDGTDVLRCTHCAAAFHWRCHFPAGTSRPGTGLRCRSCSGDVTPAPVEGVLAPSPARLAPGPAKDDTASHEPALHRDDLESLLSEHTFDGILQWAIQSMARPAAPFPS

Variants of: B1
Experiment: AIRE transcriptional activation functional score (insulin promoter-GFP; nonsense median 0, synonymous median 1) (normalised score); higher = higher AIRE activity (more reporter activation)
Settings: with insulin promoter-GFP reporter in HEK293
AIRE transcriptional activation functional score of 0.5 or higher: YES. Under 0.5: NO.

Worked cases, answers included:
Data request: Please indicate if the recorded AIRE transcriptional activation functional score for `T468Q` meets or exceeds 0.5.
Data returned: YES

Data request: Please indicate if the recorded AIRE transcriptional activation functional score for `V37Y` meets or exceeds 0.5.
Data returned: NO

Data request: Please indicate if the recorded AIRE transcriptional activation functional score for `R371W` meets or exceeds 0.5.
Data returned: YES

Continuing:
Data request: Please indicate if the recorded AIRE transcriptional activation functional score for `K253M` meets or exceeds 0.5.
Data returned: YES

Data request: Please indicate if the recorded AIRE transcriptional activation functional score for `S521N` meets or exceeds 0.5.
Data returned: YES

Data request: Please indicate if the recorded AIRE transcriptional activation functional score for `D503R` meets or exceeds 0.5.
Data returned: YES

Data request: Please indicate if the recorded AIRE transcriptional activation functional score for `R473A` meets or exceeds 0.5.
Data returned: YES

Data request: Please indicate if the recorded AIRE transcriptional activation functional score for `P499I` meets or exceeds 0.5.
Data returned: YES

Data request: Please indicate if the recorded AIRE transcriptional activation functional score for `E383Q` meets or exceeds 0.5.
Data returned: YES

Data request: Please indicate if the recorded AIRE transcriptional activation functional score for `Q275K` meets or exceeds 0.5.
Data returned: YES

Data request: Please indicate if the recorded AIRE transcriptional activation functional score for `G333Y` meets or exceeds 0.5.
Data returned: YES
